Assay: clinical
Conditions: human, in vivo, iv, CL
Flag rule - clearance less than 3 mL/min/kg flags label 1; the remaining entries get label 0.

1) Cc1nnc2n1-c1sc(Br)cc1C(c1ccccc1Cl)=NC2	label 1
2) C=C[C@@]1(O)C[N+]2(C)CC[C@H]1C[C@@H]2[C@@H](O)c1ccnc2ccc(OC)cc12	label 0

Does the reported clearance of the following molecule sit strictly below 3 mL/min/kg? O=P1(NCCCl)OCCCN1CCCl (stereo not given) [IFOSFAMIDE] label 1

Does the reported clearance of the following molecule sit strictly below 3 mL/min/kg? `CCCCc1nc(Cl)c(CO)n1Cc1ccc(-c2ccccc2-c2nn[nH]n2)cc1` label 0

Does the reported clearance of the following molecule sit strictly below 3 mL/min/kg? `O=C1CN=C(c2ccccn2)c2cc(Br)ccc2N1` label 1

Does the reported clearance of the following molecule sit strictly below 3 mL/min/kg? COc1c(N2CCNC(C)C2)c(F)cc2c(=O)c(C(=O)O)cn(C3CC3)c12 (stereo not given) label 1

Does the reported clearance of the following molecule sit strictly below 3 mL/min/kg? Cn1c(=O)c2c(ncn2CC(O)CO)n(C)c1=O (stereo not given) label 0

Does the reported clearance of the following molecule sit strictly below 3 mL/min/kg? `Cn1cc[nH]c1=S` label 0

###

Experiment: clinical
Settings: human, in vivo, iv, CL
READOUT: clearance (mL/min/kg)
One number for each entry, in mL/min/kg.

Answered cases to consult:
1) CN(C)Cc1nnc2n1-c1ccc(Cl)cc1C(c1ccccc1)=NC2 [ADINAZOLAM]	6.2
2) CCN[C@@H]1C[C@H](N)[C@@H](O[C@H]2OC(CN)=CC[C@H]2N)[C@H](O)[C@H]1O[C@H]1OC[C@](C)(O)[C@H](NC)[C@H]1O [NETILMICIN]	0.55
3) CO[C@H]1C[C@@H]2CC[C@@H](C)[C@@](O)(O2)C(=O)C(=O)N2CCCC[C@H]2C(=O)O[C@H]([C@H](C)C[C@@H]2CC[C@H](n3cnnn3)[C@H](OC)C2)CC(=O)[C@H](C)/C=C(\C)[C@@H](O)[C@@H](OC)C(=O)[C@H](C)C[C@H](C)/C=C/C=C/C=C/1C [ZOTAROLIMUS]	0.67

Next item in the queue.
Kindly note the recorded clearance for CC1(C)S[C@@H]2[C@H](NC(=O)[C@H](NC(=O)N3CCNC3=O)c3ccccc3)C(=O)N2[C@H]1C(=O)O [AZLOCILLIN] , which is 2.5

###

Assay: clinical
Details: human, in vivo, iv, t1/2
Would you mind telling me the reported half-life of each entry?
Numbers only, in h.

Answered cases to consult:
1. CC[N+](C)(C)c1cccc(O)c1.[Br-] [EDROPHONIUM BROMIDE]	1.8
2. CC1(C)S[C@@H]2[C@H](NC(=O)[C@H](N)c3ccc(O)cc3)C(=O)N2[C@H]1C(=O)O [AMOXICILLIN]	1.1
3. O=P1(NCCCl)OCCCN1CCCl (stereo unspecified) [IFOSFAMIDE]	6.6

State the recorded half-life for every item in the following list.
1. COc1ccc(-c2nc3ccc(C4=NNC(=O)CC4C)cc3[nH]2)cc1 (stereo unspecified) [PIMOBENDAN]
2. O=C(O)Cc1ccccc1Nc1c(Cl)cccc1Cl [DICLOFENAC]
3. CCC[C@@H]1C[C@@H](C(=O)N[C@@H]([C@H]2O[C@H](SC)[C@H](O)[C@@H](O)[C@H]2O)[C@@H](C)O)N(C)C1 [LINCOMYCIN]

[1.8, 1.4, 5.6]
